TARGET OR TEST SYSTEM: FGFR
Construct: fused on or other part: GST tag
TEST NAME: FGFR kinase HTRF assay
Type: biochemical
CONDITION PARAMETERS: enzyme inhibition, 10 μM ATP, methanesulfonate salt
ASSAY ENDPOINT: pIC50
Numbers only, as −log10 of the molar value.

Item: COc1ccc(N2Cc3cnc(Nc4ccccc4)nc3N(c3ccccc3)C2=O)cc1.CS(=O)(=O)O [Example 1h, methanesulfonate salt] | pIC50: 6.77

* * *

TARGET OR TEST SYSTEM: KDR (Homo sapiens, UniProt P35968)
Construct: EEE-tag
Sequence (P35968 20-1356, species assumed): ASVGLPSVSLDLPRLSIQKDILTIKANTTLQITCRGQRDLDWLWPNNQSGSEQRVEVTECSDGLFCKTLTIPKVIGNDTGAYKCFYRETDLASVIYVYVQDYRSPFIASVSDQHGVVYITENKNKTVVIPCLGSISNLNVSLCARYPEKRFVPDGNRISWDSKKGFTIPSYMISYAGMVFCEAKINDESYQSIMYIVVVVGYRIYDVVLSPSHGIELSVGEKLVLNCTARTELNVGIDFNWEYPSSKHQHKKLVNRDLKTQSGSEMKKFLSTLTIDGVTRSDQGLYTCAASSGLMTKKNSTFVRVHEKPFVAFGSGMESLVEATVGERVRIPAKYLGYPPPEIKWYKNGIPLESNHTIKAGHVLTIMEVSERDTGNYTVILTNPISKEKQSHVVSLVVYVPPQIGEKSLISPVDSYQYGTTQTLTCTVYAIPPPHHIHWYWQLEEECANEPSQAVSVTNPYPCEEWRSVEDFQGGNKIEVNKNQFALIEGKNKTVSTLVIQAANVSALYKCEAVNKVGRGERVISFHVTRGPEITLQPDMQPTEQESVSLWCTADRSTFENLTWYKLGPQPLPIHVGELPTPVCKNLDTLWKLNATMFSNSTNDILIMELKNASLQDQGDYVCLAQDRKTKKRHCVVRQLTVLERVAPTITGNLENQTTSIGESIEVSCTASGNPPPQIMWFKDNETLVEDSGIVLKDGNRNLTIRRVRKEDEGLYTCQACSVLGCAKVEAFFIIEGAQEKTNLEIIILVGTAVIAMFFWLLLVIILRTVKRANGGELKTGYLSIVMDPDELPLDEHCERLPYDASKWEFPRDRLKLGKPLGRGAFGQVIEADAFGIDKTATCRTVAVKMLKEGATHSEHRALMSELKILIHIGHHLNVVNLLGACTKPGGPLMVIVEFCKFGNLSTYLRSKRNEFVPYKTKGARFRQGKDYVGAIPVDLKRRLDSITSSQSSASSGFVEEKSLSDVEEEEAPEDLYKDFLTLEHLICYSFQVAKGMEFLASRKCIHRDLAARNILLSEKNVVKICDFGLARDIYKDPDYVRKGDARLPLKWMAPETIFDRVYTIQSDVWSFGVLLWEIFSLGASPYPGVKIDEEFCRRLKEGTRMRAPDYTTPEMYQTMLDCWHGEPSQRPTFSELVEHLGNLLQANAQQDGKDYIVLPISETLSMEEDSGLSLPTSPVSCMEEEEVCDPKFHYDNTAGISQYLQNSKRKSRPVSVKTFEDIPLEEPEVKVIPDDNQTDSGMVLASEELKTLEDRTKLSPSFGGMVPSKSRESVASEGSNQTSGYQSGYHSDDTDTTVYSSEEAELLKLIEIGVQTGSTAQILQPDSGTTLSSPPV
TEST NAME: KDR kinase HTRF assay
Format: biochemical
CONDITION PARAMETERS: enzyme inhibition, 0.3 mM ATP
Kindly state IC50 for each of the entries shown.

Observe how each entry below is paired with its result.
compound=COc1ccc(N2Cc3cnc(Nc4ccccc4)nc3N(c3ccccc3)C2=O)cc1 measured="0.044 µM"
compound="COc1ccc(N2Cc3cnc(Nc4ccccc4)nc3N(c3ccccc3)C2=O)cc1.CS(=O)(=O)O [Example 1h, methanesulfonate salt]" measured="0.076 µM"

Lab note: next compound to report on.
Assay KDR (Homo sapiens, UniProt P35968), sample "COc1ccc(Nc2ncc3c(n2)N(c2ccccc2)C(=O)N(c2ccc(OC)cc2)C3)cc1" , IC50 read: 0.024 µM

* * *

TARGET OR TEST SYSTEM: FGFR
Construct: fused on or other part: GST tag
TEST NAME: FGFR kinase HTRF assay
Type: biochemical
CONDITION PARAMETERS: enzyme inhibition, 10 μM ATP
Kindly state pIC50 for each of the entries shown.
Answers are plain numbers, as −log10 of the molar value.

Observe how each entry below is paired with its result.
chemical_string=COc1ccc(Nc2ncc3c(n2)N(c2ccccc2)C(=O)N(c2ccc(OC)cc2)C3)cc1 measured=7.04
chemical_string=COc1ccc(N2Cc3cnc(Nc4ccc(O)cc4)nc3N(c3ccccc3)C2=O)cc1 measured=6.96

Lab note: next molecule to report on.
Assay FGFR, sample "COc1ccc(N2Cc3cnc(Nc4ccccc4)nc3N(c3ccccc3)C2=O)cc1" , pIC50 read: 6.72

* * *

TARGET OR TEST SYSTEM: PDGFR
TEST NAME: PDGFR kinase HTRF assay
Format: biochemical
CONDITION PARAMETERS: enzyme inhibition, 2.3 μM ATP
ASSAY ENDPOINT: IC50
Write the figure, then the unit, nothing else.

Observe how each entry below is paired with its result.
chemical_string=COc1ccc(N2Cc3cnc(Nc4ccccc4)nc3N(c3ccccc3)C2=O)cc1 measured="130 nM"
chemical_string=COc1ccc(Nc2ncc3c(n2)N(c2ccccc2)C(=O)N(c2ccc(OC)cc2)C3)cc1 measured="82 nM"

Lab note: next compound to report on.
Item: "COc1ccc(N2Cc3cnc(Nc4ccc(O)cc4)nc3N(c3ccccc3)C2=O)cc1" | IC50: 64 nM
